- target.or.system: NPR-11 (Caenorhabditis elegans, UniProt Q18179)
- Construct: expressed in transfected cells; host or cells: HEK293, transient
- Sequence (Q18179 whole entry): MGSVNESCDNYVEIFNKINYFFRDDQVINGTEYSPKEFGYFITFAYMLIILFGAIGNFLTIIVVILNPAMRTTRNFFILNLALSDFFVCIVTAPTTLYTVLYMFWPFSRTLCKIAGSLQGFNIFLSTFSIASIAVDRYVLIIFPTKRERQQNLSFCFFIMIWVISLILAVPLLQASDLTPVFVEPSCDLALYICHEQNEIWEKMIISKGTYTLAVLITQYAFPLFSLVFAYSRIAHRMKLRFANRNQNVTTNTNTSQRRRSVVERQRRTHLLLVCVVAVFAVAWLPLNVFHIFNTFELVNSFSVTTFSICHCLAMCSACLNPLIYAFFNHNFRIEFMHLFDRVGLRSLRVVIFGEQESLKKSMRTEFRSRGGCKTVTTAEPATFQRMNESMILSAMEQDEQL
- assay.summary: IP accumulation assay, chimeric GαΔ6qi4myr, NPR-11
- Type: cell-based, C. elegans
- measurement.conditions: 10 µM peptide, 1 h, HBSS + 20 mM LiCl; HEK293 receptor + GαΔ6qi4myr; HTRF IP-One; mean of >=3 independent experiments (Tables S5 and S8)
endpoint: IP accumulation with GαΔ6qi4myr, NPR-11

Completed entries (count: 3):
> print(dat)
                                  substance                                 endpoint       endpoint.result
1  AGSDPNFLRF-NH2 [FLP-1-2, C. elegans FMRFamide-like peptide, C-terminally amidated, synthesized by SPPS]  IP accumulation with GαΔ6qi4myr, NPR-11  6.48 x-fold of basal
2  NPENDTPFGTMRF-NH2 [FLP-3-4, C. elegans FMRFamide-like peptide, C-terminally amidated, synthesized by SPPS]  IP accumulation with GαΔ6qi4myr, NPR-11  1.17 x-fold of basal
3  APKPKFIRF-NH2 [FLP-5-1, C. elegans FMRFamide-like peptide, C-terminally amidated, synthesized by SPPS]  IP accumulation with GαΔ6qi4myr, NPR-11  6.49 x-fold of basal

API: the following record is the query input.
What does the data say about its IP accumulation with GαΔ6qi4myr, NPR-11? Entry: ASPSFIRF-NH2 [FLP-4-2, C. elegans FMRFamide-like peptide, C-terminally amidated, synthesized by SPPS]
2.79 x-fold of basal
